Readings of % inhibition at 10 nM for the listed binders
- Target of assay: human plasma kallikrein (human, UniProt P03952 20-390; P03952 391-638)
- Sequence (P03952 20-390, chain 1 of 2): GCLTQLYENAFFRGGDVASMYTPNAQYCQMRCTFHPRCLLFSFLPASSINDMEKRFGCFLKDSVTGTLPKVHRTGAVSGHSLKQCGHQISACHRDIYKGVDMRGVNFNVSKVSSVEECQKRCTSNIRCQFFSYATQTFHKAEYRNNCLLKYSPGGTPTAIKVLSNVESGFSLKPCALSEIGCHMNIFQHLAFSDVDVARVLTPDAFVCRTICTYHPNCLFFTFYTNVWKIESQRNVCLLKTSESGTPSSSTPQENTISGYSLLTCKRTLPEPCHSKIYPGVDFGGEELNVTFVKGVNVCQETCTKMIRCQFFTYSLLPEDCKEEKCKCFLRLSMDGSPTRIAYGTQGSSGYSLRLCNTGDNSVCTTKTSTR
- Sequence (P03952 391-638, chain 2 of 2): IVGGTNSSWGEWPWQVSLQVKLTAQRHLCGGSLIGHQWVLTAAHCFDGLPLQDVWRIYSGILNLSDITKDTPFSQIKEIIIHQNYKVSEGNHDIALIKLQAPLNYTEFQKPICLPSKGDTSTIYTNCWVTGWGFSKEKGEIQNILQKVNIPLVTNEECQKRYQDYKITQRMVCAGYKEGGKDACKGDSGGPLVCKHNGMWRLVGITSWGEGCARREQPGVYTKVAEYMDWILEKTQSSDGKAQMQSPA
- Assay remarks: cell-based or functional assay
Number in %, nothing else.

| Binder | Value observed |
| --- | --- |
| M195-B12 (Fab, V domains shown) VH: EVQLLESGGGLVQPGGSLRLSCAASGFTFSKYWMYWVRQAPGKGLEWVSYIRPSGGQTYYADSVKGRFTISRDNSKNTLYLQMNSLRAEDTAVYYCAYRRTGIPRRDAFDIWGQGTMVTVSS VL: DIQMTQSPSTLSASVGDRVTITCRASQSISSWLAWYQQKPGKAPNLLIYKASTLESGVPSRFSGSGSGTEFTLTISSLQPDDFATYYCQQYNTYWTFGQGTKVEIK | 87.7 |

Let us examine a further case.
# lookup: % inhibition at 10 nM of M202-H03 (Fab, V domains shown, Tested as Fab; printed HC runs into CH1; Same CDRs as M202-C01, differs at the residue before HV-CDR3 (F for Y)) VH: EVQLLESGGGLVQPGGSLRLSCAASGFTFSHYIMMWVRQAPGKGLEWVSGIYSSGGITVYADSVKGRFTISRDNSKNTLYLQMNSLRAEDTAVYYCAFRRTGVPRWDDFDIWGQGTMVTVSS VL: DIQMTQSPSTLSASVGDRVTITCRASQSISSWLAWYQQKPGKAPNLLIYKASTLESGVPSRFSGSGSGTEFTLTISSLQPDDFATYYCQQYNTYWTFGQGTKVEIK 95.7
